Tested on: UO-31 renal
Experiment: NCI-60 one-dose screen, 48 h (100 = growth as untreated, 0 = no growth, -100 = all killed)
Conditions: 10 µM unless noted
About 83,000 compounds went through this panel and 20% of them were active in at least one assay; those are over-represented in the sample as a whole.
// class 0 strictly below 80% in growth; class 1 otherwise

Below, 2 compounds whose answers are already recorded.
CC(C)=CCC/C(C)=C/CC/C(C)=C/CSC[C@H](NC(=O)CCCCCN1CCN(C)CC1)C(=O)NC1CCCCCC1 ... class 0
OCC1OC(n2cnc3c(Cl)ncnc32)CC1O (stereo not drawn) ... class 0

Kindly determine if growth recorded for `CC(=O)OC[C@]12CC[C@@H](/C(C)=N/O)[C@@H]1[C@H]1CC[C@@H]3[C@@]4(C)CCCNC(C)(C)[C@@H]4CC[C@@]3(C)[C@]1(C)CC2` is above or exactly 80%.
class 0

Check if growth >= 80% (inclusive). Item: `Cc1cc(Cl)nc(N(CCNc2ccnc3cc(Cl)ccc23)Cc2ccco2)n1`
class 0

Has `C=C(C)[C@@H]1CC[C@]2(C(=O)OC)CC[C@]3(C)[C@H](CC[C@@H]4[C@@](C)(CC/C(N)=N/O)[C@H](C(=C)C)CC[C@]43C)[C@@H]12` a recorded growth greater than or equal to 80%?
class 1

---

System: NCI-H322M lung
Experiment: NCI-60 one-dose screen, 48 h (100 = growth as untreated, 0 = no growth, -100 = all killed)
Conditions: 10 µM unless noted
The panel holds about 83,000 compounds, 20% with a hit somewhere; the sample as a whole holds those more often.
Readout: growth (%)
Give the number; % is assumed, so skip it.

Look up and state reported growth for `O=C1C(=O)c2ccccc2C(O)=C1CCCc1ccc(C2CCCCC2)cc1`
81.3

// Input: `COc1ccc2c(c1)C/C(=C\c1cc(-c3ccc4c(c3)OCO4)n[nH]1)C2=O` . Output its growth only.
113

---

Tested on: SW-620 colon
Assay: NCI-60 one-dose screen, 48 h (100 = growth as untreated, 0 = no growth, -100 = all killed)
Settings: 10 µM unless noted
This is part of a sample that, as a whole, favours compounds with a hit. Of some 83,000 tested, about 20% had one in any assay. Active and inactive are the calls of the source. How the source made its calls: active means growth percent below 10; inactive means the rest.
Form field: growth (one value per entry).

C=C(C)[C@@H]1CC[C@]2(C(=O)N3CCCNCC3)CC[C@]3(C)[C@H](CC[C@@H]4[C@@]5(C)CCC(=O)C(C)(C)[C@@H]5CC[C@]43C)[C@@H]12 ... 93.5% (inactive)

Give a short answer stating reported growth for COC(=O)[C@]12CC[C@@H](C)[C@H](C)[C@@H]1C1=CC[C@@H]3[C@@]4(C)C[C@@H](O)OC[C@](C)(C=O)C4C(=O)C[C@@]3(C)[C@]1(C)CC2 (stereo partly drawn) .
17% (inactive)

Please give the documented growth of `C=C(C)[C@@H]1CC[C@]2(C)CC[C@]3(C)[C@H](CC[C@@H]4[C@@]5(C)CCCNC(C)(C)[C@@H]5CC[C@]43C)[C@@H]12`
2.47% (active)

---

Entries and their growth
Test system: HOP-62 NSCLC
Assay: NCI-60 one-dose screen, 48 h (100 = growth as untreated, 0 = no growth, -100 = all killed)
Details: 10 µM unless noted
About 83,000 compounds went through this panel and 20% of them were active in at least one assay; those are over-represented in the sample as a whole. Active and inactive are the calls of the source. How the source made its calls: active means growth percent below 10; inactive means the rest.

Field: example entries. Status: answers known.
Oc1cccc2oc(=S)[nH]c12 ... 104% (inactive)
C/C(=N\Nc1cc(C)c2cc(C)ccc2n1)c1ccccn1 ... 10.1% (inactive)
NCCn1cc(-c2nc(-c3c[nH]c4ncccc34)cs2)c2ccccc21 ... 75.4% (inactive)

Could you please provide reported growth for `Cc1cc(N2CCCCC2)nc(N(CCNc2ccnc3cc(Cl)ccc23)Cc2ccco2)n1` ? Thanks!
24.3% (inactive)

Respond only with growth recorded for `O=C(N/N=C\c1ccccc1O)C1CC1`
105% (inactive)

---

Test system: HOP-62 NSCLC
Assay: NCI-60 one-dose screen, 48 h (100 = growth as untreated, 0 = no growth, -100 = all killed)
Conditions: 10 µM unless noted
The panel holds about 83,000 compounds, 20% with a hit somewhere; the sample as a whole holds those more often.
Hi! Just check whether growth is below 90%. Below gives 1.0, equal or above gives 0.0.

O=C1CCN2C(=O)Nc3ccccc3C2C1 (stereo not given) ... 0.0
Cc1cc(N2CCCCC2)nc(N(CCCNc2ccnc3cc(Cl)ccc23)Cc2ccco2)n1 ... 1.0
CCCCC/C(=C\c1ccccc1)C1OC(C)C(C)O1 (stereo not given) ... 0.0
O=C1OC(c2ccc(Cl)c(Cl)c2)=C/C1=C/c1cccc([N+](=O)[O-])c1 ... 0.0
CC/C(=N/NC(N)=O)c1ccccc1 ... 0.0

Hello, is growth of the following compound strictly smaller than 90%? `CC1(C)C(=O)/C(=C\c2ccco2)C[C@]2(C)[C@H]3CC[C@@H]4[C@@H](C(=O)/C=C/c5ccco5)CC[C@@]4(C)[C@]3(C)CC[C@@H]12`
1.0

Field: below-cutoff. Rule: recorded growth strictly less than 90%. Subject: `COc1ccc2c(c1)C/C(=C\c1cc(-c3ccc4c(c3)OCO4)n[nH]1)C2=O`
0.0

Check if growth falls below 90% for `CN1CCN(CCOc2ccc(-c3cnc4c(-c5ccccc5F)cnn4c3)cc2)CC1` .
1.0

Here's an entry: `CCCCCCCC(=O)SCC/C=C/[C@@H]1CC(=O)NCc2cccc(n2)CN(Cc2ccc(Cl)cc2)CC(=O)N[C@@H](C(C)C)C(=O)O1` . Is its growth below 90%?
1.0

---

Tested on: MDA-MB-435 melanoma
Test: NCI-60 one-dose screen, 48 h (100 = growth as untreated, 0 = no growth, -100 = all killed)
Conditions: 10 µM unless noted
About 83,000 compounds went through this panel and 20% of them were active in at least one assay; those are over-represented in the sample as a whole.
Each entry below carries its reported growth.
Numbers only; they are read as %.

Cc1ccc(N(CC(=O)Nc2ccc(S(=O)(=O)NC3CCN(C)CC3)cc2)S(=O)(=O)c2ccc(Cl)cc2)cc1 ... -44.3

Supply reported growth belonging to this compound: `C[C@H]1[C@@H]2[C@H]3CC[C@@H]4[C@@]5(C)Cc6c([nH]c7ccccc67)C(C)(C)[C@@H]5CC[C@@]4(C)[C@]3(C)CC[C@]23CO[C@]1(C)[C@@H](C(=O)/C=C/c1ccccn1)C3`
83.8

Quick one: give measured growth for `Cc1ccc(-c2ccc(Nc3ccccc3)nn2)cc1S(N)(=O)=O`
8.3

Specify reported growth for the compound shown: `O=C(/C=C/c1ccc2ccccc2c1)Nc1ncc(Cc2ccccc2)s1`
66.1

---

Tested on: OVCAR-5 ovarian
Assay: NCI-60 one-dose screen, 48 h (100 = growth as untreated, 0 = no growth, -100 = all killed)
Conditions: 10 µM unless noted
This is part of a sample that, as a whole, favours compounds with a hit. Of some 83,000 tested, about 20% had one in any assay. Calls of active or inactive are those of the source. How the source made its calls: active means growth percent below 10; inactive means the rest.
Parameter growth: see the listing below.

Guide cases for growth, answers given:
CN(C)c1ccc(C(=O)c2ccc(N(C)C)c(N)c2)cc1N ... 75.7% (inactive)
CCc1cccc(CC)c1NC(=O)c1sc2nc3c(cc2c1N)CCCC3 ... 95.3% (inactive)
C#Cc1cccc(NC(=O)C2CCCN(C(=O)CCl)C2)c1 (stereo unspecified) ... 78.8% [8.25 µM] (inactive)
COc1cc2nc(Cl)nc(Nc3cccc(C(=O)/C=C/c4ccccc4)c3)c2cc1OC ... 68.9% (inactive)
O=S(=O)(NCCNc1cc(-c2cn(-c3ccccc3)nc2-c2cccc(O)c2)ccn1)c1ccc(Cl)cc1 ... 63.4% (inactive)

// switching to the query molecule
Provide growth, recorded with OVCAR-5 ovarian, of NC(=O)[C@@H]1CC2CCC1C2 (stereo partly specified)
95% (inactive)

---

System: UACC-62 melanoma
Assay: NCI-60 one-dose screen, 48 h (100 = growth as untreated, 0 = no growth, -100 = all killed)
Settings: 10 µM unless noted
The panel holds about 83,000 compounds, 20% with a hit somewhere; the sample as a whole holds those more often.
Criterion: growth strictly less than 90%. Met: T. Not met: F.

Record excerpt, results attached:
N#CC1c2ccccc2-c2ccccc2N1C(=O)c1ccccc1 (stereo not drawn) ... T
CCN1CCN(C(=O)[C@]23CCC(C)(C)C[C@@H]2C2=CC[C@@H]4[C@@]5(C)C/C(=C/c6cccnc6)C(=O)C(C)(C)[C@@H]5CC[C@@]4(C)[C@]2(C)CC3)CC1 ... T
O=C(N/N=C\c1ccccc1O)C1CC1 ... F
C=C(C)[C@@H]1CC[C@]2(C)[C@H](CC=C3[C@@H]4CC(C)(C)CC[C@]4(C(=O)OC)CC[C@]32C)[C@@]1(C)CC/C(N)=N/O ... T
Cc1csc(-c2ccc3c(c2)COC3(CCCN(C)C)c2ccc(F)cc2)c1 (stereo not drawn) ... T

In the record for `NC1=NN=C2N(N)C(=O)c3cnn(-c4ccccc4)c3N2c2nc(-c3ccccc3)cc(-c3ccccc3)c21` , is growth less than 90%?
T

growth under 90%? Item: C/C(=N\NC(=O)C(C)SC(C)C(=O)N/N=C(\C)c1cccnc1)c1cccnc1 (stereo not drawn)
F
